Origin of measurements: BindingDB's records for doi:10.3109/14756366.2011.614607

Target or system Carbonic anhydrase 6 (Homo sapiens, UniProt P23280): recorded Ki listed per item.
measurement label: Ki (nM)

# compound, subject of test, measurement label, experimental value
rows = [
    ("Nc1ccc(S(N)(=O)=O)cc1 [aromatic sulfonamide compound 5]", "Carbonic anhydrase 6 (Homo sapiens, UniProt P23280)", "Ki", 1210),
]

I: Cc1ccc(S(N)(=O)=O)cc1
II: NCc1ccc(S(N)(=O)=O)cc1 [aromatic sulfonamide compound 6]
III: NS(=O)(=O)c1ccccc1
Order the items by recorded Ki; the first position goes to the largest value. Output spec: a listing of the labels in the requested order.
I, III, II
(I: 21200 nM, III: 4110 nM, II: 1010 nM)
